TARGET_OR_SYSTEM: CDK8/CycC (Homo sapiens)
Construct: purchased Invitrogen PV4402
Sequence (P49336 whole entry): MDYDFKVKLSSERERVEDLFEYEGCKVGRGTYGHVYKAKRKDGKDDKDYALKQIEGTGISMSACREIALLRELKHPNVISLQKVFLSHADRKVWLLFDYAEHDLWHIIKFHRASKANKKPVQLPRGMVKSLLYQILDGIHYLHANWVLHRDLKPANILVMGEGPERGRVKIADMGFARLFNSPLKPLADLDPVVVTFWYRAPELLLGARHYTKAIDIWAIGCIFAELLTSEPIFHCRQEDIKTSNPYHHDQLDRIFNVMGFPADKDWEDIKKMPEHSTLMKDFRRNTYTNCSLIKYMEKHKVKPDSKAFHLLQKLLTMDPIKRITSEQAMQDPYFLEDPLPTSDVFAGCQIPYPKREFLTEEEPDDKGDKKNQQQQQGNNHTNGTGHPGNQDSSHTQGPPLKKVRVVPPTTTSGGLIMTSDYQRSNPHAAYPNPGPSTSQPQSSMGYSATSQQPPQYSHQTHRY
Sequence (P24863 whole entry partner): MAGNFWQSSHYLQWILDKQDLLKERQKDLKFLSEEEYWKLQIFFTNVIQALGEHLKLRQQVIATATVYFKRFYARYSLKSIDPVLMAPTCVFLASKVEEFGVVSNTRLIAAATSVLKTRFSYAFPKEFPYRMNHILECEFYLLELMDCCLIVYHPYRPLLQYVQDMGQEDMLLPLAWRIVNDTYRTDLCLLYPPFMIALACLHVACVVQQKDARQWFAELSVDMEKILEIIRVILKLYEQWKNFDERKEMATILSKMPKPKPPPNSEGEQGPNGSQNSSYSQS
ASSAY_DETAILS: FRET based Lanthascreen binding competition assay for CDK8 inhibitory activity
RUN_CONDITIONS: CDK8 co-expressed with CycC; class symbols; read-out: IC50
pIC50: −log10 of the molar value.
QUANTITY_NAME: pIC50

Some entries whose results are on file:
# input Report pIC50 for Cc1n[nH]c2ncc(C(=O)N3CCC[C@@H]3c3ccccc3Cl)cc12 [compound 37] tested on CDK8/CycC (Homo sapiens).
# output 6.00 to 7.00

# input Same question, COc1ccccc1C1CCCN1C(=O)c1cnc2[nH]nc(C)c2c1 (centres unmarked) [compound 141] this time
# output 6.00 to 7.00

# input Another: Cc1n[nH]c2ncc(C(=O)N3CCCC3c3ccc(Cl)c(F)c3)cc12 (centres unmarked) [compound 179]
# output 7.00 to 8.00

# input Same read-out for Cc1n[nH]c2ncc(C(=O)N3CCNC(c4ccccc4)C3)cc12 (centres unmarked) [compound 182] ?
# output 5.00 to 6.00

Further cases:
# input // fetch CDK8/CycC (Homo sapiens) pIC50 for Cc1n[nH]c2ncc(C(=O)N3CCC[C@@H]3c3ccc(F)cc3)cc12 [compound 44]
# output 6.00 to 7.00
